Entry source: ChEMBL document CHEMBL4715782

What follows is a record of pIC50 for Acetylcholinesterase (Electrophorus electricus).
As a rule, pIC50 stands for the negative log10 of the concentration, concentration in M.

Examples with their reported pIC50 follow.
# structureAsSmiles, observed
measured = [
    ("O=C(CCCCN1CCCCC1)Nc1cccc2c1C(=O)c1cccc3ccnc-2c13", 6.01),
    ("O=C(CCCN1CCCCC1)Nc1c(Cl)ccc2c1-c1nccc3cccc(c13)C2=O", 6.83),
    ("O=C(CCCN1CCCCC1)Nc1cccc2c1C(=O)c1cccc3ccnc-2c13", 6.73),
    ("O=C(CCCCCN1CCCCC1)Nc1c(Cl)ccc2c1-c1nccc3cccc(c13)C2=O", 6.42),
    ("O=C(CN1CCCCC1)Nc1cccc2c1C(=O)c1cccc3ccnc-2c13", 6.81),
    ("O=C(CCCCN1CCCCC1)Nc1c(Cl)ccc2c1-c1nccc3cccc(c13)C2=O", 5.74),
]

Field: pIC50 (Acetylcholinesterase (Electrophorus electricus)). Entry: `O=C(CCN1CCCCC1)Nc1c(Cl)ccc2c1-c1nccc3cccc(c13)C2=O`
7.55

Field: pIC50 (Acetylcholinesterase (Electrophorus electricus)). Entry: `O=C(CCN1CCCCC1)Nc1cccc2c1C(=O)c1cccc3ccnc-2c13`
7.09

Field: pIC50 (Acetylcholinesterase (Electrophorus electricus)). Entry: `O=C(CCCCCN1CCCCC1)Nc1cccc2c1C(=O)c1cccc3ccnc-2c13`
6.33

Field: pIC50 (Acetylcholinesterase (Electrophorus electricus)). Entry: `O=C(CN1CCCCC1)Nc1c(Cl)ccc2c1-c1nccc3cccc(c13)C2=O`
7.49
